# system-tested: KRas^G12C (Homo sapiens, UniProt P01116, G12C)
# Sequence (P01116 1-169 isoform P01116-2 G12C): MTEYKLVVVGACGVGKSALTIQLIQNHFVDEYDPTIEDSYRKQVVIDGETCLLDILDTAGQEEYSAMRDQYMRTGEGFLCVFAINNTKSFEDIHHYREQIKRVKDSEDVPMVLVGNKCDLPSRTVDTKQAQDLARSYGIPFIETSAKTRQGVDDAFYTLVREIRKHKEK
# assay-protocol: biochemical
experimental-readout: pIC50
Numbers only, as −log10 of the molar value.

Items follow; give pIC50 for each.
1. CCc1cccc2cccc(N3CCc4c(nc(OCC56CCCN5CCC6)nc4NCc4nnc(CSC)[nH]4)C3)c12 [Example 161]
2. CCc1cccc2cccc(N3CCc4c(nc(OCC56CCCN5CCC6)nc4N4CCCC(c5nc(C)no5)C4)C3)c12 (stereo not shown) [Example 162]
3. CCc1cccc2cccc(N3CCc4c(nc(OCC56CCCN5CCC6)nc4NCc4c5c(n[nH]c4=O)CCCC5)C3)c12 [Example 155]
4. CCc1cccc2cccc(N3CCc4c(nc(OCC56CCCN5CCC6)nc4N4CC(C)CC(CO)C4)C3)c12 (stereo not shown) [Example 133]
5. CCc1cccc2cccc(N3CCc4c(nc(OCC56CCCN5CCC6)nc4N4CCCC(c5nnc6n5CCC6)C4)C3)c12 (stereo not shown) [Example 106]
6. CCc1cccc2cccc(N3CCc4c(nc(OCC56CCCN5CCC6)nc4NC4CN(c5ccccn5)C4)C3)c12 [Example 150]

## Output
[5.17, 5.42, 5.35, 6.06, 6.43, 5.71]

###

# system-tested: KRas^G12V (Homo sapiens, UniProt P01116, G12V)
# Construct: […]; biotin (biotinylated)
# Sequence (P01116 1-169 isoform P01116-2 G12V): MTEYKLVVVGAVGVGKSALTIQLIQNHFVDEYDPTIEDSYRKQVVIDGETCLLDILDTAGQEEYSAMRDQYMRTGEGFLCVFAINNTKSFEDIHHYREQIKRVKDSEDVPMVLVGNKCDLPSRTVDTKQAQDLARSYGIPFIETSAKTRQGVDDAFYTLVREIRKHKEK
# assay-protocol: KRas binding assay (TR-FRET displacement of Cy5 labelled tracer)
Kindly apply the following: fulfilled if IC50 is less than 80 nM, not fulfilled in every other case.

CCc1cccc2cccc(N3CCc4c(nc(OCC56CCCN5CCC6)nc4N4CCCn5nccc5C4)C3)c12	not fulfilled
CCc1c(F)ccc2cc(O)cc(N3CCc4c(nc(OC[C@@]56CCCN5C[C@H](F)C6)nc4N4C[C@H]5CC[C@H](O)[C@H]5C4)C3)c12	fulfilled
C[C@@]1(O)CCCN(c2nc(OC[C@@]34CCCN3C[C@H](F)C4)nc3c2CCN(c2cc(O)cc4ccc(F)c(Br)c24)C3)C1	fulfilled
Oc1cc(N2CCc3c(nc(OC[C@@]45CCCN4C[C@H](F)C5)nc3N3CC4CC(O)C(C4)C3)C2)c2c(Br)c(F)ccc2c1 (stereo partly shown)	fulfilled
CCc1c(F)ccc2cc(O)cc(N3CCc4c(nc(OC[C@@]56CCCN5C[C@H](F)C6)nc4N4CCCn5nc(C(=O)N(C)C)cc5C4)C3)c12	fulfilled

## Input IC50 strictly < 80 nM for this compound? Oc1cc(N2CCc3c(nc(OC[C@@]45CCCN4C[C@H](F)C5)nc3N3CC4CC(O)CC3C4)C2)c2c(Cl)c(F)ccc2c1 (single isomer, unassigned) [Example 77]
## Output not fulfilled

## Input Lab log: compare recorded IC50 with 80 nM; is it strictly lower for CCc1cccc2cccc(N3CCc4c(nc(OCC56CCCN5CCC6)nc4N4CC[C@H]5C(=O)NC[C@H]5C4)C3)c12 ?
## Output not fulfilled

###

# Test system: HCT116 cells, pERK
# assay-protocol: Inhibition of KRas phosphorylation of ERK (Cisbio HTRF Advanced pERK assay)
# Type: cell-based
# reported-conditions: Homo sapiens, HCT-116, 3 hrs, read-out: Inhibition (HTRF IC50 nM) of KRas-mediated Phosphorylation of ERK, HCT116
experimental-readout: IC50 (nM)
Numbers only, in nM.

Example entries begin here.
Nc1cc2n(n1)CCCN(c1nc(OC[C@@]34CCCN3C[C@H](F)C4)nc3c1CCN(c1cc(O)cc4ccc(F)c(Cl)c14)C3)C2	2160
CCc1c(F)ccc2cc(O)cc(N3CCc4c(nc(OC[C@@]56CCCN5C[C@H](F)C6)nc4N4CCCC5(CNC(=O)C5)C4)C3)c12 (stereo partly drawn)	499
CCc1c(F)ccc2cc(O)cc(N3CCc4c(nc(OC[C@@]56CCCN5C[C@H](F)C6)nc4N4CCCn5nc(CO)cc5C4)C3)c12	1270
O=S1(=O)NCC2(CCCN(c3nc(OC[C@@]45CCCN4C[C@H](F)C5)nc4c3CCN(c3cc(O)cc5ccc(F)c(Br)c35)C4)C2)N1 (stereo partly drawn)	158
O=C1CC2(CCCN(c3nc(OC[C@@]45CCCN4C[C@H](F)C5)nc4c3CCN(c3cc(O)cc5ccc(F)c(Cl)c35)C4)C2)N1 (stereo partly drawn)	1490

## Input Would you mind telling me what IC50 value was observed for CCc1c(F)ccc2cc(O)cc(N3CCc4c(nc(OC[C@@]56CCCN5C[C@H](F)C6)nc4N4CCCn5nc(C(=O)N6CCOCC6)cc5C4)C3)c12 ?
## Output 74
